Provide the recorded IC50 for the entries that follow.
studySystem: HIV-integrase (Human immunodeficiency virus type 1 group M subtype B, UniProt P12497)
Construct: Recombinant integrase (0.26 ng) was incubated with the beads
assayNotes: HIV-Integrase Inhibition Activity (SPA bead integration assay with P33 labeled target DNA)
Format: biochemical
conditionDetails: recombinant integrase, class symbols; read-out: in vitro activity

Noted for NC12CCC(Cn3c1nc(C(=O)NCc1ccc(F)cc1)c(O)c3=O)OC2 (stereo not shown) [Example 220] : its IC50 reads 10 to 100 nM

Noted for CN(C)C(=O)C(=O)NC12CCC(CCn3c1nc(C(=O)NCc1ccc(F)c(Cl)c1)c(O)c3=O)C2 (stereo not shown) [Example 213] : its IC50 reads < 10 nM

Noted for O=C(NC12CCC(CCn3c1nc(C(=O)NCc1ccc(F)cc1)c(O)c3=O)C2)C(=O)N1CCC(F)CC1 (stereo not shown) [Example 203] : its IC50 reads < 10 nM

Noted for COc1cc(F)ccc1CNC(=O)c1nc2n(c(=O)c1O)CC1CCC2(NC(=O)C(=O)N(C)C)CC1 [Example 116] : its IC50 reads < 10 nM

----------
studySystem: HIV-integrase (Human immunodeficiency virus type 1 group M subtype B, UniProt P12497)
Construct: Recombinant integrase (0.26 ng) was incubated with the beads
assayNotes: HIV-Integrase Inhibition Activity (SPA bead integration assay with P33 labeled target DNA)
Type: biochemical
conditionDetails: recombinant integrase, class symbols; read-out: in vitro activity
Provide the recorded IC50 for the entries that follow.

Noted for Cc1cc(F)ccc1CNC(=O)c1nc2n(c(=O)c1O)CC1CCC2(NC(=O)C(=O)N(C)C)CC1 : its IC50 reads < 10 nM

Noted for CO[C@H]1C[C@@H](C(=O)NC23CCC(CC2)Cn2c3nc(C(=O)NCc3ccc(F)c(C)c3)c(O)c2=O)N(C(=O)c2cc(C)n(C)n2)C1 : its IC50 reads < 10 nM

Noted for CN(C)C(=O)C(=O)NC12CCC(CC1)Cn1c2nc(C(=O)NCCCN2CCCC2=O)c(O)c1=O : its IC50 reads > 100 nM

Noted for CN(C)C(=O)C(=O)NC12CCC(CC1)Cn1c2nc(C(=O)NCc2nc3ccccc3s2)c(O)c1=O : its IC50 reads < 10 nM

Noted for Cc1cc(CNC(=O)c2nc3n(c(=O)c2O)CC2CCC3(N(C)C(=O)C(=O)N3CC[C@@H](F)C3)CC2)ccc1F : its IC50 reads < 10 nM

Noted for CCOC(=O)[C@@H]1CCCN1C(=O)C(=O)NC12CCC(CC1)Cn1c2nc(C(=O)NCc2ccc(F)cc2)c(O)c1=O : its IC50 reads < 10 nM

Noted for CN(C)C(=O)NC12CCC(CC1)Cn1c2nc(C(=O)NCc2ccc(F)cc2)c(O)c1=O : its IC50 reads 10 to 100 nM

Noted for Cc1cnnn1-c1cc(F)ccc1CNC(=O)c1nc2n(c(=O)c1O)CC1CCC2(NC(=O)C(=O)N(C)C)CC1 : its IC50 reads 10 to 100 nM

Noted for CN(C)C12CCC(CC1)Cn1c2nc(C(=O)NCc2ccc(F)cc2)c(O)c1=O : its IC50 reads > 100 nM

Noted for O=C(N[C@@]12CC[C@@H](CCn3c1nc(C(=O)NCc1ccc(F)cc1)c(O)c3=O)C2)C(=O)N1CC[C@@H](F)C1 : its IC50 reads < 10 nM

Noted for CN(C)C(=O)C(=O)NC12CCC(CC1)Cn1c2nc(C(=O)NCCC(C)(C)C)c(O)c1=O : its IC50 reads > 100 nM

Noted for COc1cccc(CNC(=O)c2nc3n(c(=O)c2O)CC2CCC3(NC(=O)C(=O)N(C)C)CC2)c1 : its IC50 reads < 10 nM

Noted for CN(C)C(=O)N1CCN(C(=O)C(=O)NC23CCC(CC2)Cn2c3nc(C(=O)NCc3ccc(F)cc3)c(O)c2=O)CC1 : its IC50 reads < 10 nM

Noted for CCN(C)C(=O)C(=O)NC12CCC(CCn3c1nc(C(=O)NCc1ccc(F)cc1)c(O)c3=O)C2 (stereo not drawn) : its IC50 reads < 10 nM

Noted for COc1ccccc1CNC(=O)c1nc2n(c(=O)c1O)CC1CCC2(NC(=O)C(=O)N(C)C)CC1 : its IC50 reads < 10 nM

----------
studySystem: HIV-integrase (Human immunodeficiency virus type 1 group M subtype B, UniProt P12497)
Construct: Recombinant integrase (0.26 ng) was incubated with the beads
assayNotes: HIV-Integrase Inhibition Activity (SPA bead integration assay with P33 labeled target DNA)
Type: biochemical
conditionDetails: recombinant integrase, class symbols; read-out: in vitro activity
pIC50: −log10 of the molar value.
testReadout: pIC50

Noted for COCCN(C)C(=O)C(=O)N(C)C12CCC(CC1)Cn1c2nc(C(=O)NCc2ccc(F)cc2)c(O)c1=O : its pIC50 reads > 8.00

Noted for CN(C)C(=O)C(=O)NC12CCC(CC1)Cn1c2nc(C(=O)NCCCc2ccccc2)c(O)c1=O : its pIC50 reads > 8.00

Noted for CN(C)C(=O)C(=O)NC12CCC(CC1)Cn1c2nc(C(=O)NCc2ccc(N)cc2)c(O)c1=O : its pIC50 reads 7.00 to 8.00

Noted for O=C(NC12CCC(CC1)Cn1c2nc(C(=O)NCc2ccc(F)cc2)c(O)c1=O)C(=O)N1CCC(O)CC1 : its pIC50 reads > 8.00

----------
studySystem: HIV-integrase (Human immunodeficiency virus type 1 group M subtype B)
Construct: Recombinant integrase (0.26 ng) was incubated with the beads
assayNotes: HIV-Integrase Inhibition Activity (SPA bead integration assay with P33 labeled target DNA)
Assay type: biochemical
conditionDetails: recombinant integrase, class symbols; read-out: in vitro activity
Provide the recorded IC50 for the entries that follow.

Noted for Cc1cc(CNC(=O)c2nc3n(c(=O)c2O)CC2CCC3(NC(=O)c3cc(-c4cnn(C)c4)on3)CC2)ccc1F : its IC50 reads < 10 nM

Noted for Cn1cnc(S(=O)(=O)N2CCN(C(=O)C(=O)NC34CCC(CC3)Cn3c4nc(C(=O)NCc4ccc(F)cc4)c(O)c3=O)CC2)c1 : its IC50 reads < 10 nM

Noted for O=C(NCc1ccc(F)cc1)c1nc2n(c(=O)c1O)CC1CCC2(NC(=O)C2CCCN2S(=O)(=O)C2CCCC2)CC1 (stereo not drawn) : its IC50 reads < 10 nM

----------
Provide the recorded pIC50 for the entries that follow.
studySystem: HIV-integrase (Human immunodeficiency virus type 1 group M subtype B, UniProt P12497)
Construct: Recombinant integrase (0.26 ng) was incubated with the beads
assayNotes: HIV-Integrase Inhibition Activity (SPA bead integration assay with P33 labeled target DNA)
Format: biochemical
conditionDetails: recombinant integrase, class symbols; read-out: in vitro activity
pIC50: −log10 of the molar value.

Noted for Cc1cc(CNC(=O)c2nc3n(c(=O)c2O)CC2CCC3(NC(=O)c3ccccn3)CC2)ccc1F : its pIC50 reads > 8.00

Noted for NC12CCC(Cn3c1nc(C(=O)NCc1ccc(F)cc1)c(O)c3=O)C2 (stereo not drawn) : its pIC50 reads 7.00 to 8.00

Noted for Cc1cc(CNC(=O)c2nc3n(c(=O)c2O)CC2CCC3(N(C)C(=O)c3cccnc3)CC2)ccc1F : its pIC50 reads > 8.00

Noted for O=C(NCc1ccc(F)cc1)c1nc2n(c(=O)c1O)CC1CCC2(NC(=O)C2CCOC2)CC1 (stereo not drawn) : its pIC50 reads > 8.00

Noted for CN(C12CCC(CC1)Cn1c2nc(C(=O)NCc2ccc(F)cc2)c(O)c1=O)S(C)(=O)=O : its pIC50 reads > 8.00

Noted for O=C(NC12CCC(CC1)Cn1c2nc(C(=O)NCc2ccc(F)cc2)c(O)c1=O)c1cnc2ccccc2c1 : its pIC50 reads > 8.00

Noted for COC[C@H]1CCCN1C(=O)C(=O)NC12CCC(CC1)Cn1c2nc(C(=O)NCc2ccc(F)cc2)c(O)c1=O : its pIC50 reads > 8.00

Noted for O=C(NC12CCC(CC1)Cn1c2nc(C(=O)NCc2ccc(F)cc2)c(O)c1=O)C(=O)N1CCCC1 : its pIC50 reads > 8.00

Noted for COCCOC12CCC(CC1)Cn1c2nc(C(=O)NCc2ccc(F)cc2)c(O)c1=O : its pIC50 reads > 8.00

Noted for CN/C(=N\C#N)NC12CCC(CC1)Cn1c2nc(C(=O)NCc2ccc(F)c(C)c2)c(O)c1=O : its pIC50 reads > 8.00

Noted for CC(=O)N1CC(F)(F)C[C@H]1C(=O)NC12CCC(CC1)Cn1c2nc(C(=O)NCc2ccc(F)c(C)c2)c(O)c1=O : its pIC50 reads > 8.00

Noted for O=C(NC12CCC(CC1)Cn1c2nc(C(=O)NCc2ccc(F)cc2)c(O)c1=O)C(=O)c1c[nH]c2c(-n3cncn3)ncc(F)c12 : its pIC50 reads > 8.00

Noted for CN(C)C(=O)C(=O)NC12CCC(CC1)Cn1c2nc(C(=O)NCc2cccc(-c3ccccc3)c2)c(O)c1=O : its pIC50 reads > 8.00

Noted for O=C(NCc1ccc(F)cc1)c1nc2n(c(=O)c1O)CC1CCC2(NS(=O)(=O)c2ccccc2OC(F)(F)F)CC1 : its pIC50 reads < 7.00

Noted for Cc1ncnn1-c1cc(F)ccc1CNC(=O)c1nc2n(c(=O)c1O)CC1CCC2(NC(=O)C(=O)N(C)C)CC1 : its pIC50 reads 7.00 to 8.00
